The measured values listed here are drawn from paper PMC9482650.

# SYSTEM_TESTED: Inadl_5, Q8NI35
# Sequence (Q8NI35 673-780): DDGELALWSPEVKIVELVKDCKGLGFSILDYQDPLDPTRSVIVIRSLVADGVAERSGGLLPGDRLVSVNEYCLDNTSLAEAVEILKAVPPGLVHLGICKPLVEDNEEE
# ASSAY_PROCEDURE: holdup assay
# Parameters: key: below the threshold = too weak to quantify, mostly under pKd 3.1 to 4
# STUDY_CONDITIONS: plain residues with an end cap or a label only (N-terminal biotin on a linker: ttds)
MEASURED_QUANTITY: pKd

Some solved entries appear below for comparison.
RHTTSTETAV [HPV30-E6, P36809] :: below the threshold
SGSRPSATVV [HPV73-E6, Q82005] :: below the threshold
KKYVDAETSL [SLC4A7, Q9Y6M7] :: below the threshold
PRVKPQRSKV [PPP1R13L, Q8WUF5] :: below the threshold

input: Item SSLQSLETSV [ATP2B4, P23634] has what recorded pKd?
output: below the threshold

input: Lookup RPLPRKVSQL [DOCK4, Q8N1I0]
output: below the threshold

input: Please do the same for DKDPHSETAL [TMIGD1, Q6UXZ0] as well.
output: below the threshold
